System: SK-MEL-5 melanoma
Assay: NCI-60 one-dose screen, 48 h (100 = growth as untreated, 0 = no growth, -100 = all killed)
Conditions: 10 µM unless noted
About 83,000 compounds went through this panel and 20% of them were active in at least one assay; those are over-represented in the sample as a whole.
The following compounds are shown together with reported growth values.
OBSERVED PROPERTY: growth (%)

# CPD SMILES, ASSAY SYSTEM, MEASURE UNIT, ENDPOINT RESULT
data = [
    ("CN(CCCCCCCCNc1ccnc2ccccc12)Cc1ccc(-c2ccc(-c3ccc(C#N)cc3)s2)cc1", "SK-MEL-5 melanoma", "%", -100),
    ("Cc1cnc(Nc2ccc(OCCN3CCCC3)cc2)nc1NCc1ccco1", "SK-MEL-5 melanoma", "%", 81.7),
    ("N#Cc1c(N)n2c(nc1=Nc1ccc([N+](=O)[O-])cc1)sc1cc(Cl)ccc12", "SK-MEL-5 melanoma", "%", 73),
    ("Nc1c(C(=O)c2ccc(Cl)s2)sc2nc3c(cc12)CCCC3", "SK-MEL-5 melanoma", "%", 96.8),
    ("N#Cc1c(N)nc2c(nnn2-c2cccc(Br)c2)c1N", "SK-MEL-5 melanoma", "%", 96.4),
    ("CN(C)CCOC(=O)Nc1ccc(Cl)cc1", "SK-MEL-5 melanoma", "%", 99),
    ("CC1(C)C(=O)/C(=C\\c2cccnc2)C[C@]2(C)[C@H]3CC=C4[C@@H]5C[C@@](C)(C(=O)O)CC[C@]5(C)CC[C@@]4(C)[C@]3(C)CC[C@@H]12", "SK-MEL-5 melanoma", "%", 109),
    ("CC1(C)N=C(N)N=C(N)N1c1cccc(CN)c1", "SK-MEL-5 melanoma", "%", 109),
    ("O=C1Nc2ccccc2/C1=N/N=C/c1ccsc1", "SK-MEL-5 melanoma", "%", 101),
    ("CCCCCCCCn1cc(C2=C(c3coc4ccc(OC)cc34)C(=O)NC2=O)c2ccccc21", "SK-MEL-5 melanoma", "%", 99.2),
]
